Where do these numbers come from? They come from paper PMC9389588.

Catalogue of Ki values
molecular target: α-glucosidase GAA (Myozyme) (Homo sapiens)
Quick note: give the figure in µM, leave out the unit.

> print(dat)
                                   compound   val
1  CCCCN1C[C@H](O)[C@@H](O)[C@H](O)[C@H]1CO [compound 2, N-butyldeoxynojirimycin, reference compound]  15.2

Please turn your attention to the following entry.
Inquiry: Request body: readout Ki, system α-glucosidase GAA (Myozyme) (Homo sapiens), query O=S1(=O)N[C@@H]2[C@H](O)[C@@H](O)[C@H](O)[C@@H](CO)[C@@H]2O1 [compound 4, 1,6-epi-cyclophellitol cyclosulfamidate] . Return the value.
Reply text: 3.4
